// data source = patent US20250027068

Could you please report measured Enzyme activity endpoint: IgG for the items listed next?
# tested_target: pooled human IgG (human IgG1,2,3 and 4)
Provide the measurement as a number trailed by its unit.

So for PRT-649 (protein) MQITSVWTKGVTPLTPEQFRYNNEDVIHAPYLAHQGWYDITKAFDGKDNLLCGAATAGNMLHWWFDQNKTEIEAYLSKHPEKQKIIFNNQYLFDLKAAIDTKDSQTNSQLFNYFRDKAFGNLSARQLGVMPDLVLDMFINGYKLKVNKTQSTDVNRPYQKPDNFGGIFDAVFTRGDQTTLLTARHDLKNKGLNDISTIIKQELTEGRALALSHTYANVSISHVINLWGADFNAEGNLEAIYVTDSDANASIGMKKYFVGINAHGHVAISAKKIEGENIGAQVLGLFTLSSGKDIWQKLSLEHHHHHH , the logged Enzyme activity endpoint: IgG turned out to be 886 ng/µL

So for PRT-638 (protein) MQITSVWTKGVTPLTPEQFRYNNEDVIHAPYLAHQGWYDITKLNDTGDGLLCGAATAGNMLHWWFDQNKTEIEAYLSKHPEKQKIIFNNQELFDLKAAIDTKDSQTNSQLFNYFRDKAFPNLSARQKGVMPDLVLDMFINGYYLNVFKTQSTDVNRPYQDKDKRGGIFDAVFTRGDQTTLLTARHDLKNKGLNDISTIIKQELTEGRALALSHTYANVSISHVINLWGADFNAEGNLEAIYVTDSNAGNGIGMKKYFVGINAHGHVAISAKKIEGENIGAQVLGLFTLSSGKDIWQKLSLEHHHHHH , the logged Enzyme activity endpoint: IgG turned out to be 823 ng/µL
